- Assayed system: T1, PUF4 RNA-binding domain (Saccharomyces cerevisiae, UniProt P25339 537-888)
- T1 sequence: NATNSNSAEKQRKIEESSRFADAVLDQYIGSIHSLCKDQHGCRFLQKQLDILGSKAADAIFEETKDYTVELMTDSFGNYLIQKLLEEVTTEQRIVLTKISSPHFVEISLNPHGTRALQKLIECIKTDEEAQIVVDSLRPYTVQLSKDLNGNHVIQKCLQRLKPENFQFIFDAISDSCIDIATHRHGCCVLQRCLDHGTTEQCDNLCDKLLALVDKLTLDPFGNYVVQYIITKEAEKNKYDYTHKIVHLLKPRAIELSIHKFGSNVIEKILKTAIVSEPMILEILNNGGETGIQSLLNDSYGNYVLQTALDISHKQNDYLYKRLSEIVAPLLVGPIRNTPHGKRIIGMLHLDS
- Test method notes: Mg; RNA-MaP; 20 mM Na-HEPES pH 7.4, 30 mM KOAc, 0.75 mM MgCl2, 0.1% Tween-20, 5% glycerol, 0.1 mg/mL BSA, 2 mM DTT; 25 C; 0.0125-409.6 nM protein
- Test context: tags: N-His6-TEV cleaved; C-SNAP kept, Cy3B-labelled; label: tethered on chip by stalled RNA polymerase
Measured log10 of Kd accompanies every entry in the list below.
Short version: log10 scale, Kd, nM.

UCUCUUGUACACUUAUUACUUCUCUU (ssRNA) [Id_ii_S1_P5E.4_K5.3_C5.2_[C-2G]_H5.3_A5.1_F5.1_T5.2_[T11C]_[A12T]] :: 0.77
UCUCUUUGUAUUCUUUCUCUU (ssRNA) [Ic_S1_P4E.1_K4.1_C4.1_H4.1_A4.1_[A6T]_[T7C]_F4.1_[A9T]_T4.1] :: 1.43
Id_ii_S2_P4E.3_K4.2_C4.2_[T-1G]_H4.2_A4.1_F4.1_T4.2_[G10A]_[T11C] (ssRNA) RNA: UUUGAUUAAUAUGAUAUCGUUCUUUCUCGUAUAUAUUAACUUCUUUCUCGAUAUCAUAUUAAUCUUU :: 1.36
Ie_S2_P5E.1_K5.1_C5.1_H5.1_A5.1_[+7TTCC]_F5.1_T5.1 (ssRNA) RNA: UUUGAUUAAUAUGAUAUCGUUCUUUCUUGUAUUAUUCCUUAUUCUUUCUCGAUAUCAUAUUAAUCUUU :: 1.00

Noted for UCUCUUUAUGUAUAUUAUGUCUCUU (ssRNA) [Id_ii_S1_P4E.2_K4.1_C4.2_[C-2T]_[T-1A]_H4.1_A4.1_F4.1_T4.2_[G10T]_[T11G]] : its log10 of Kd reads -0.01

The binder Id_ii_S2_P3E.2_K3.1_C3.2_[C-2T]_[T-1G]_H3.1_A3.1_F3.1_T3.2_[A10C] (ssRNA) RNA: UUUGAUUAAUAUGAUAUCGUUCUUUCUUGUGUAUAUAUCUUCUUUCUCGAUAUCAUAUUAAUCUUU showed log10 of Kd equal to 0.54

response.value for Ib_S2_P5E.1_K5.1_C5.1_H5.1_[A4T]_A5.1_F5.1_[T8A]_T5.1 (ssRNA) RNA: UUUGAUUAAUAUGAUAUCGUUCUUUCUUGUUUUAAUAUUCUUUCUCGAUAUCAUAUUAAUCUUU (field: log10 of Kd) = 1.45

Noted for Ic_S4_P4E.1_K4.1_C4.1_H4.1_A4.1_[T5A]_[A6C]_[T7A]_F4.1_[T8A]_[A9C]_T4.1 (ssRNA) RNA: UUUGACAACUGAUCGUUCUUUCUUGUAACAACUUCUUUCUCGAUCAGUUGUCUUU : its log10 of Kd reads 3.02

The reported value for UCUCUUUGUAUUGGCUCUCUU (ssRNA) [Ic_S1_P4E.1_K4.1_C4.1_H4.1_A4.1_[A6T]_[T7G]_F4.1_[T8G]_[A9C]_T4.1] in terms of log10 of Kd is 3.12

For this binder ( ACAAACGGUAUUUUUAACAAAC (ssRNA) [Ib_S3_P5E.1_K5.1_C5.1_H5.1_[T1G]_A5.1_[A7T]_F5.1_T5.1] ), measured log10 of Kd is 3.20

Lookup result for Ic_S4_P4E.1_K4.1_C4.1_H4.1_A4.1_[T5A]_[A6T]_[T7G]_F4.1_[T8C]_[A9T]_T4.1 (ssRNA) RNA: UUUGACAACUGAUCGUUCUUUCUUGUAAUGCUUUCUUUCUCGAUCAGUUGUCUUU ; measured log10 of Kd: 2.71

Input UCUCUUAUUGUAUAUUAUAUCUCUU (ssRNA) [Id_ii_S1_P4E.2_K4.1_C4.2_[C-2A]_H4.1_A4.1_F4.1_T4.2_[G10T]_[T11A]] . Output log10 of Kd: 0.05

The value of log10 of Kd measured for the binder UCUCUUUCUAUAUUAUUAAGUCUCUU (ssRNA) [Id_ii_S1_P5E.3_K5.2_C5.2_[C-2T]_[T-1C]_H5.2_A5.1_F5.1_T5.2_[T11A]_[A12G]] turned out to be 2.76
